- System: E. coli TESEC Mtb Asd
- experimental.protocol: growth (OD600 after 10 h); higher = more growth (less inhibition)
- condition: arabinose induction (level): High; compound 0.1 mM; raw OD600 reference: median of DMSO wells 0.331, cell-free background 0.041
quantity.kind: growth

CCCCCC[C@H]1C(=O)O[C@H](C)[C@H](NC(=O)c2cccc(NC=O)c2O)C(=O)O[C@@H](C)[C@@H]1OC(=O)CC(C)C [Antimycin A]
0.24
C[C@]12CC[C@@H](O)C[C@@H]1CC[C@@H]1[C@@H]2CC[C@]2(C)C(=O)CC[C@@H]12
0.148
NCC(CC(=O)O)c1ccc(Cl)cc1 (racemic) [Baclofen (R,S)]
0.392

--- query ---
// O=[N+]([O-])O[C@H]1CO[C@H]2[C@@H]1OC[C@H]2O[N+](=O)[O-] [Isosorbide dinitrate] : growth value = 0.476

* * *

Measured growth accompanies every entry in the list below.
- Test system: E. coli TESEC Mtb Alr
- experimental.protocol: growth (OD600 after 10 h); higher = more growth (less inhibition)
- condition: arabinose 10000 nM; compound 0.1 mM; raw OD600 reference: median of DMSO wells 0.264, cell-free background 0.041
Where a name gives a salt, the structure may show the parent alone.
The answer should be a number; do not append a unit.

Guide cases for growth, answers given:
CC(C)N(CCC(C(N)=O)(c1ccccc1)c1ccccn1)C(C)C (centres undefined) [Disopyramide]
0.25
C[C@@H]1C[C@@H]([C@H](O)CC2CC(=O)NC(=O)C2)C(=O)[C@@H](C)C1 [Cycloheximide]
0.268
CNC(=O)Oc1ccc2c(c1)[C@]1(C)CCN(C)[C@@H]1N2C [Eserine hemisulfate salt]
0.251
COc1cc2c(cc1OC)C(C)NCC2 (centres undefined)
0.275
CC(C)c1c(CN(C)C(C)Cc2ccccc2)n(C)n(-c2ccccc2)c1=O (centres undefined) [Famprofazone]
0.27

Let us examine a further case.
// molecule O=P1(N(CCCl)CCCl)NCCCO1 (centres undefined) [Cyclophosphamide] , assay E. coli TESEC Mtb Alr, growth value: 0.276

* * *

- System: E. coli TESEC Alr+ wild-type control
- experimental.protocol: growth (OD600 after 10 h); higher = more growth (less inhibition)
- condition: compound 0.1 mM; raw OD600 reference: median of DMSO wells 0.241, cell-free background 0.041
Where a name gives a salt, the structure may show the parent alone.
quantity.kind: growth
Respond numerically, and do not add a unit to the figure.

Below: 4 compounds and their reported growth.
C#C[C@]1(O)CC[C@H]2[C@@H]3CCC4=CC(=O)CC[C@]4(C)[C@H]3CC[C@@]21C
0.237
C=C1CC[C@@]2(O)[C@H]3Cc4ccc(O)c5c4[C@@]2(CCN3CC2CC2)[C@H]1O5 [Nalmefene hydrochloride]
0.238
CC(C)(C)NCC(O)c1cc(Cl)c(N)c(Cl)c1 (stereo not given) [Clenbuterol hydrochloride]
0.226
NC(=O)CN1CCCC1=O
0.245

Next up:
Per the records, this compound ( C[C@]12N[C@H](Cc3ccccc31)c1ccccc12 [Dizocilpine maleate] ) has growth equal to 0.237

* * *

- System: E. coli TESEC Mtb Alr
- experimental.protocol: growth (OD600 after 10 h); higher = more growth (less inhibition)
- condition: arabinose 10000000 nM; compound 0.1 mM; raw OD600 reference: median of DMSO wells […], cell-free background 0.052
Structures can show the parent of a compound that is named as a salt.
quantity.kind: growth
Quick one: just the number, no unit, thanks!

Here's what some known entries look like.
CCCC(C)C1(CC)C(=O)NC(=O)NC1=O (stereo not drawn)
0.369
C[C@]12CC[C@H](O)C[C@@H]1CC[C@@H]1[C@@H]2CC[C@]2(C)C(=O)CC[C@@H]12 [Epiandrosterone]
0.109
NCC(O)c1ccc(O)cc1 (racemic) [(+,-)-Octopamine hydrochloride]
0.337
C[C@]12CCC(=O)C(O)=C1CC[C@@H]1[C@@H]2CC[C@]2(C)C(=O)CC[C@@H]12
0.133
O[C@@H]1CCCC[C@H]1N1CCC(c2ccccc2)CC1 [L(-)-vesamicol hydrochloride]
0.358
NCCc1c[nH]c2ccc(O)cc12 [Serotonin hydrochloride]
0.338
CC(=O)O[C@H]1CC[C@@]2(C)C(=CC[C@@H]3[C@@H]2CC[C@]2(C)C(=O)CC[C@@H]32)C1 [Dehydroisoandosterone 3-acetate]
0.0699

// growth lookup, molecule = `C=C(C)[C@@H]1[C@H]2OC(=O)[C@@H]1[C@]1(O)C[C@H]3O[C@]34C(=O)O[C@H]2[C@]14C` , result: 0.351
